Quick reference: IC50 of the listed items.
Tested on: NCI-H929 cells
Assay: Cell viability assay (NCI-H929 cells), CCK-8
Type: cell-based
Conditions: Homo sapiens, NCI-H929, 24 h, 5% FBS
Method: Cell Viability Assay (NCI-H929 cells) NCI-H929 cells were obtained from American Type Culture Collection (ATCC). Cells were maintained in the recommended culture medium (RPMI 1640) with 10% FBS and 0.05 mM BME at 37° C. and an atmosphere of 5% CO2. The effect of Compounds on cell viability was determined using Cell Counting Kit-8 (CCK-8) assay according to the manufacturer's instructions. […] The plates were read at 450 nm on the microplate reader (BioTek Synergy 1MF). […]
quantity_kind: IC50 (nM)

COCCN1Cc2cc(n(C)n2)CSc2cc(c3ccc(F)cc3c2)OCCCn2c(C(=O)O)c(C)c3c(c(Cl)ccc32)-c2c(nn3c2COCC3)C1 ... 226
Cc1ccc2c3c(C)c(C(=O)O)n2CCCOc2cc(cc4cc(F)ccc24)SCc2cc(nn2C)CSCc2nn(C)c(C)c2-c13 ... 61
Cc1c(C(=O)O)n2c3ccc(Cl)c(c13)-c1c(nn3c1COCC3)CN(CCNS(C)(=O)=O)Cc1cc(n(C)n1)CSc1cc(c3ccc(F)cc3c1)OCCC2 ... 1540

Data origin, for the record: patent US11691989B2
